Where a SMILES comes first, the peptide text is derived from it. Bridges are numbered along the chain shown (N, C = ends). [ ]: non-standard residue; d: D form. The star is where a group is joined. Ahp = NCCCCCCC(=O)O; Bn = c1ccc(C*)cc1
List of Ki tested on Somatostatin receptor type 4 (Homo sapiens).
experimental endpoint: Ki (nM)

compound="C[C@@H](O)[C@@H]1NC(=O)[C@H](CCCCN)NC(=O)[C@@H](Cc2c[nH]c3ccccc23)NC(=O)[C@H](Cc2c[nH]c3ccccc23)NC(=O)[C@H](Cc2ccccc2)NC(=O)CCCCCCNC(=O)[C@H](Cc2ccccc2)NC1=O [L-362855] (cyclo([Ahp]FW[dW]KTF))" data_value=83.2
compound="CC(C)[C@@H]1NC(=O)[C@H](CCCCN)NC(=O)[C@@H](Cc2c[nH]c3ccccc23)NC(=O)[C@H](Cc2ccc(O)cc2)NC(=O)[C@@H](NC(=O)[C@H](N)Cc2ccccc2)CSSC[C@@H](C(=O)N[C@@H](Cc2c[nH]c3ccccc23)C(N)=O)NC1=O [CAS_71306] (H-[dF]CY[dW]KVCW-NH2; disulfide 2-7)" data_value=107
compound="C[C@@H](OCc1ccccc1)[C@@H]1NC(=O)[C@H](CCCCN)NC(=O)[C@@H](Cc2c[nH]c3ccccc23)NC(=O)[C@H](Cc2ccccc2)NC(=O)CCCCCCNC1=O [c[Aha-Phe-D-Trp-Lys-Thr(Bzl)]] (cyclo([Ahp]F[dW]KT(Bn)))" data_value=513
compound="C[C@@H](O)[C@@H]1NC(=O)[C@H](CCCCN)NC(=O)[C@@H](Cc2c[nH]c3ccccc23)NC(=O)[C@H](Cc2ccccc2)NC(=O)[C@@H]2CCCN2C(=O)[C@H](Cc2ccccc2)NC1=O (cyclo(PF[dW]KTF))" data_value=2290

----------
measurement target: Somatostatin receptor type 4 (Homo sapiens, UniProt P31391)
Sequence (P31391 whole entry): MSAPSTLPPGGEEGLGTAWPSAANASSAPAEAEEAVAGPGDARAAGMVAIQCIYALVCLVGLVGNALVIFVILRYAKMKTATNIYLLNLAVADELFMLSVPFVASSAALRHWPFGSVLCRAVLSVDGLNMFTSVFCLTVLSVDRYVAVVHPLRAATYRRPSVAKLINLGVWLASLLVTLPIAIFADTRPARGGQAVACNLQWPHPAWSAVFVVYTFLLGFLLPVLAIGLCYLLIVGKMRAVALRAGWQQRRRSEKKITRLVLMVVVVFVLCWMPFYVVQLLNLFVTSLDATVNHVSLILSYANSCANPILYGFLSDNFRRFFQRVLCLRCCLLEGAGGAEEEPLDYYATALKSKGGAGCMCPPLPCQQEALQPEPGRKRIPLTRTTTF
pKi: −log10 of the molar value. *1 amine or outer side, *2 acyl side, *3 side chain or, on linkers, in order; H or OH if unused. Where a SMILES comes first, the peptide text is derived from it. Bridges are numbered along the chain shown (N, C = ends). [ ]: non-standard residue; d: D form. d1Nal = N[C@H](Cc1cccc2ccccc12)C(=O)O; Asu = N[C@@H](CCCCCC(=O)O)C(=O)O; X1 = O=C(C(N[*:1])S[*:3])[*:2]; Mpa = O=C(O)CCS
Here, each record is paired with measured pKi data.
experimental endpoint: pKi

molecule="CC(C)[C@H](NC(=O)[C@H](CCCCN)NC(=O)[C@@H](Cc1c[nH]c2ccccc12)NC(=O)[C@H](Cc1ccc(O)cc1)NC(=O)[C@H](Cc1ccccc1)NC(=O)[C@H](N)Cc1ccccc1)C(=O)N[C@@H](Cc1ccccc1)C(=O)N[C@H](Cc1cccc2ccccc12)C(N)=O [BIM 23056] (H-[dF]FY[dW]KVF[d1Nal]-NH2)" measurement_target="Somatostatin receptor type 4 (Homo sapiens, UniProt P31391)" experimental_endpoint=pKi data_value=7.04
molecule="C[C@@H](O)[C@H](NC(=O)[C@H](Cc1ccccc1)NC(=O)[C@@H](NC(=O)[C@H](CCCCN)NC(=O)[C@@H](Cc1c[nH]c2ccccc12)NC(=O)[C@H](Cc1ccccc1)NC(=O)[C@H](Cc1ccccc1)NC(=O)[C@H](N)Cc1ccccc1)[C@@H](C)O)C(N)=O [CAS_133073-82-2] (H-[dF]FF[dW]KTFT-NH2)" measurement_target="Somatostatin receptor type 4 (Homo sapiens, UniProt P31391)" experimental_endpoint=pKi data_value=8.13
molecule="C[C@@H](O)[C@@H]1NC(=O)[C@H](CCCCN)NC(=O)[C@H](Cc2c[nH]c3ccccc23)NC(=O)[C@H](Cc2ccccc2)NC(=O)[C@H](Cc2ccccc2)NC(=O)[C@H](CC(N)=O)NC(=O)[C@H](CCCCN)NC(=O)[C@@H](NC(=O)[C@@H]2CCCN2)CSSC[C@@H](C(=O)N[C@@H](CCCCN)C(=O)O)NC(=O)[C@H](CO)NC(=O)[C@H](CO)NC(=O)[C@H](Cc2ccccc2)NC1=O [Cortistatin(1-14)] (H-PCKNFFWKTFSSCK-OH; disulfide 2-13)" measurement_target="Somatostatin receptor type 4 (Homo sapiens, UniProt P31391)" experimental_endpoint=pKi data_value=8.57
molecule="CC(C)[C@@H]1NC(=O)[C@H](CCCCN)NC(=O)[C@@H](Cc2c[nH]c3ccccc23)NC(=O)[C@H](Cc2ccc(O)cc2)NC(=O)CCSSC(C(=O)N[C@@H](Cc2ccccc2)C(N)=O)NC1=O (stereo not given in full) [CAS_117580-24-2] ([Mpa]Y[dW]KV[X1]F-NH2; disulfide 1-6)" measurement_target="Somatostatin receptor type 4 (Homo sapiens, UniProt P31391)" experimental_endpoint=pKi data_value=5.53
molecule="C[C@@H](O)[C@@H]1NC(=O)[C@H](Cc2ccc(O)cc2)NC(=O)[C@H]([C@@H](C)O)NC(=O)[C@H](CCCCN)NC(=O)[C@H](Cc2c[nH]c3ccccc23)NC(=O)[C@H](Cc2ccccc2)NC(=O)[C@H](Cc2ccccc2)NC(=O)[C@H](CC(N)=O)NC(=O)[C@H](CCCCN)NC(=O)CCCCC[C@@H](C(=O)O)NC(=O)[C@H](CO)NC1=O [CGP-23996] (KNFFWKTYTS[Asu]-OH; lactam N-11)" measurement_target="Somatostatin receptor type 4 (Homo sapiens, UniProt P31391)" experimental_endpoint=pKi data_value=8.62
